biological target: recombinant human ALK5 (TGF-βR1) protein (Homo sapiens); construct: purchased Life Technologies PR9075A; experiment: Biochemical ALK5 (TGF-βR1) assay to measure pKi (LANCE Ultra ULight kinase assay); details: apparent pKi from pIC50 by Cheng-Prusoff, read-out: ALK5 pKi (converted)
Sequence (P36897 34-503): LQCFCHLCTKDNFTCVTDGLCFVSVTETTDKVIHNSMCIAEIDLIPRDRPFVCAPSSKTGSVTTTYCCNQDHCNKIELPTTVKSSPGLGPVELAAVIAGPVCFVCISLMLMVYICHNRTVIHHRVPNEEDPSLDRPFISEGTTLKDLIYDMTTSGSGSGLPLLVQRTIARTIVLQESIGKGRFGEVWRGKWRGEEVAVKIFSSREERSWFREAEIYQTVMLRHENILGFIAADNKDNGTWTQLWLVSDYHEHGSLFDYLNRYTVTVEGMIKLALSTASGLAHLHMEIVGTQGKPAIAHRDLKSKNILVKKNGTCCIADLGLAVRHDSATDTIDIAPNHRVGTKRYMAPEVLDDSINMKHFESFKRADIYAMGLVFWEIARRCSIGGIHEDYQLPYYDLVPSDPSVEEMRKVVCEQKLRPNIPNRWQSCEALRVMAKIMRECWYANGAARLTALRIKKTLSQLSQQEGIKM
Hi there, I'd appreciate the recorded Ki for every entry that follows.

QUERY: Find the recorded Ki belonging to Cc1cccc(-c2n[nH]cc2-c2ccc3ncc(N4CCCN(C5CCNCC5)CC4)cc3n2)n1 and report it.
RESULT: 0.0398 to 0.316 nM

QUERY: Find the recorded Ki belonging to Cc1cccc(-c2n[nH]cc2-c2ccc3ncc(N)cc3n2)n1 and report it.
RESULT: < 0.0316 nM

QUERY: Find the recorded Ki belonging to Cc1cccc(-c2[nH]cnc2-c2ccc3ncc(C4=CCC(C(=O)OCC5CNC5)CC4)cc3c2)n1 (centres unmarked) and report it.
RESULT: 0.0398 to 0.316 nM

QUERY: Find the recorded Ki belonging to Cc1cccc(-c2n[nH]cc2-c2ccc3ncc(-c4ccnnc4)cc3n2)n1 and report it.
RESULT: < 0.0316 nM

QUERY: Find the recorded Ki belonging to Cc1cccc(-c2n[nH]cc2-c2ccc3ncc(NCCN4C[C@@H](C)N[C@@H](C)C4)cc3n2)n1 and report it.
RESULT: 0.0398 to 0.316 nM

QUERY: Find the recorded Ki belonging to Cc1cccc(-c2[nH]ncc2-c2ccc3ncc(C(=O)O[C@@H]4CCCNC4)cc3c2)n1 and report it.
RESULT: 0.0398 to 0.316 nM

QUERY: Find the recorded Ki belonging to Cc1cccc(-c2[nH]nnc2-c2ccc3ncc(-c4c[nH]nc4C(F)(F)F)cc3n2)n1 and report it.
RESULT: 0.398 to 3.16 nM

QUERY: Find the recorded Ki belonging to Cc1cccc(-c2[nH]cnc2-c2ccc3ncc(-c4csc(C(=O)OC[C@H]5CC[C@H](N)CC5)c4)cc3c2)n1 [Compound 1245] and report it.
RESULT: 0.0398 to 0.316 nM
